FYI, the data here is from patent US20110077248A1.

Biological target: SIRT1 (Homo sapiens, UniProt Q96EB6)
Construct: His-tag (N); made in house; host or cells: E. coli BL21(DE3), T7-promoter vector
Assay: Mass spectrometry based assay for modulators of SIRT1 activity (deacetylation of p53-based acetylated peptide)
Assay type: biochemical
Conditions: concentration of test compound that results in 150% activation of SIRT1; 0.5 μM peptide substrate, 120 μM βNAD+, 10 nM SIRT1, 25 min, 25° C.

- smiles-structure: "O=C(Nc1ccncn1)c1nccn2cc(-c3ccccc3OC(F)(F)F)nc12"
  EC1.5: "B (EC1.5 1-25 uM)"
- smiles-structure: "Cc1ccc(-c2cn3ccnc(C(=O)Nc4nccs4)c3n2)cn1"
  EC1.5: "C (EC1.5>25 uM)"
- smiles-structure: "O=C(Nc1ccccc1)c1cccn2cc(-c3cccc(OC(F)(F)F)c3)nc12"
  EC1.5: "C (EC1.5>25 uM)"
- smiles-structure: "O=C(Nc1cnccn1)c1nccn2cc(-c3ccccc3OC(F)(F)F)nc12"
  EC1.5: "A (EC1.5<1.0 uM)"
- smiles-structure: "O=C(Nc1ccccn1)c1cccn2nc(-c3cc(N4CCOCC4)ccc3C(F)(F)F)nc12"
  EC1.5: "A (EC1.5<1.0 uM)"
- smiles-structure: "O=C(Nc1ccccn1)c1cccn2cc(-c3ccc(F)cc3)nc12"
  EC1.5: "B (EC1.5 1-25 uM)"
- smiles-structure: "O=C(Nc1nccs1)c1cccn2cc(-c3cccc(OC(F)(F)F)c3)nc12"
  EC1.5: "B (EC1.5 1-25 uM)"
- smiles-structure: "O=C(Nc1nccs1)c1cccn2cc(-c3cccc(F)c3)nc12"
  EC1.5: "C (EC1.5>25 uM)"
- smiles-structure: "O=C(Nc1ccccn1)c1cccn2cc(-c3ccc(N4CCCC4)cc3)nc12"
  EC1.5: "C (EC1.5>25 uM)"
- smiles-structure: "Cc1ncccc1-c1nc2c(C(=O)Nc3nccs3)cccn2n1"
  EC1.5: "C (EC1.5>25 uM)"
- smiles-structure: "O=C(Nc1cccc(CN2CCOCC2)n1)c1cccn2cc(-c3cccc(Cl)c3)nc12"
  EC1.5: "A (EC1.5<1.0 uM)"
- smiles-structure: "O=C(Nc1cccn2cc(-c3cccc(OC(F)(F)F)c3)nc12)c1cscn1"
  EC1.5: "C (EC1.5>25 uM)"
- smiles-structure: "O=C(Nc1nc(CN2CCOCC2)cs1)c1cccn2nc(-c3cccc(OC(F)(F)F)c3)nc12"
  EC1.5: "B (EC1.5 1-25 uM)"
- smiles-structure: "O=C(Nc1ccccn1)c1cccn2cc(-c3ccc(C(F)(F)F)cc3)nc12"
  EC1.5: "C (EC1.5>25 uM)"
- smiles-structure: "O=C(Nc1nccs1)c1nccn2cc(-c3ccc(F)cc3C(F)(F)F)nc12"
  EC1.5: "B (EC1.5 1-25 uM)"
- smiles-structure: "O=C(Nc1ccc(CCN2CCOCC2)cc1)c1cccn2cc(-c3ccc(F)cc3C(F)(F)F)nc12"
  EC1.5: "A (EC1.5<1.0 uM)"
- smiles-structure: "O=C(Nc1cccc(CN2CCOCC2)n1)c1cccn2cc(-c3ccc(F)cc3C(F)(F)F)nc12"
  EC1.5: "A (EC1.5<1.0 uM)"

###

Biological target: SIRT1 (Homo sapiens)
Construct: His-tag (N); made in house; host or cells: E. coli BL21(DE3), T7-promoter vector
Sequence (Q96EB6 1-747): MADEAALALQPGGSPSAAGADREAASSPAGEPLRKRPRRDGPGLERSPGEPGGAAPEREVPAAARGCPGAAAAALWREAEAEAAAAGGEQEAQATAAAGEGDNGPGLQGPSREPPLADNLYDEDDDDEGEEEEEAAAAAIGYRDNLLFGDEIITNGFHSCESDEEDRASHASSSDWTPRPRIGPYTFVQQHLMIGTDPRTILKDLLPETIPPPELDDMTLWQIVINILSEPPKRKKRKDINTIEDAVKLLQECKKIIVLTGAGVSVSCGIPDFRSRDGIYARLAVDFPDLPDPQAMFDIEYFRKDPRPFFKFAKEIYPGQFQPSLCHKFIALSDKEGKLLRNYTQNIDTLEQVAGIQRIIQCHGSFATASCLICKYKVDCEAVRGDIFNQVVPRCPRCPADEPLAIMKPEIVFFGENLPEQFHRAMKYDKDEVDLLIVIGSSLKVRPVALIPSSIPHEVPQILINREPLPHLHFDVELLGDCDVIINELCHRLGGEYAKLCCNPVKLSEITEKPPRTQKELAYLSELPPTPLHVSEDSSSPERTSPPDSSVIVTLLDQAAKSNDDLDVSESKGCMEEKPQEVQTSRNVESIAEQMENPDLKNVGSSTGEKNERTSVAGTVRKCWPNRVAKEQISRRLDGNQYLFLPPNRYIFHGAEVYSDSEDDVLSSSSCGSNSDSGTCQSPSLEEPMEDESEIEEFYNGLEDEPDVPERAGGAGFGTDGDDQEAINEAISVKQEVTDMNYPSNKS
Experiment: Mass spectrometry based assay for modulators of SIRT1 activity (deacetylation of p53-based acetylated peptide)
Type: biochemical
Details: percent maximum fold activation of SIRT1

- molecule: "O=C(Nc1cccn2cc(-c3cccc(OC(F)(F)F)c3)nc12)c1cscn1"
  Emax: "< 200%"
- molecule: "O=C(Nc1cccnn1)c1nccn2cc(-c3ccccc3OC(F)(F)F)nc12"
  Emax: "> 200%"
- molecule: "O=C(Nc1cccc(CN2CCOCC2)n1)c1cccn2cc(-c3ccc(F)c(Cl)c3)nc12"
  Emax: "> 200%"
- molecule: "O=C(Nc1ccccc1)c1cccn2cc(-c3cccc(C(F)(F)F)c3)nc12"
  Emax: "< 200%"
- molecule: "O=C(Nc1cccc(OCC(O)CO)c1)c1cccn2cc(-c3cccc(OC(F)(F)F)c3)nc12 (centres unmarked)"
  Emax: "> 200%"
- molecule: "O=C(Nc1nccs1)c1cccn2cc(-c3cccc(F)c3)nc12"
  Emax: "< 200%"
- molecule: "O=C(Nc1nccs1)c1cccn2cc(-c3ccc(N4CCOCC4)cc3)nc12"
  Emax: "< 200%"
- molecule: "O=C(Nc1cccn2cc(-c3cccc(C(F)(F)F)c3)nc12)c1ccncc1"
  Emax: "< 200%"

###

Molecular target: SIRT1 (Homo sapiens)
Construct: His-tag (N); made in house; host or cells: E. coli BL21(DE3), T7-promoter vector
Test: Mass spectrometry based assay for modulators of SIRT1 activity (deacetylation of p53-based acetylated peptide)
Assay type: biochemical
Details: percent maximum fold activation of SIRT1
List of Emax values.

- smiles-structure: "Cc1cc(-c2nc3c(C(=O)Nc4nc(CN5CCOCC5)cs4)cccn3n2)ccn1"
  target-under-test: "SIRT1 (Homo sapiens)"
  Emax: "> 200%"
- smiles-structure: "Cc1nc(C)c(-c2nc3c(C(=O)Nc4ccccn4)cccn3n2)s1"
  target-under-test: "SIRT1 (Homo sapiens)"
  Emax: "< 200%"
- smiles-structure: "O=C(Nc1ccccn1)c1nccn2cc(-c3ccccc3OC(F)(F)F)nc12"
  target-under-test: "SIRT1 (Homo sapiens)"
  Emax: "> 200%"
- smiles-structure: "O=C(Nc1cccc(CN2CCOCC2)n1)c1cccn2cc(-c3ccc(F)cc3F)nc12"
  target-under-test: "SIRT1 (Homo sapiens)"
  Emax: "< 200%"
- smiles-structure: "O=C(Nc1ccccc1)c1cccn2cc(-c3cccc(OC(F)(F)F)c3)nc12"
  target-under-test: "SIRT1 (Homo sapiens)"
  Emax: "< 200%"
- smiles-structure: "O=C(Nc1cccc(CN2CCOCC2)n1)c1cccn2cc(-c3cc(F)ccc3F)nc12"
  target-under-test: "SIRT1 (Homo sapiens)"
  Emax: "> 200%"
- smiles-structure: "O=C(Nc1nc(CN2CCOCC2)cs1)c1cccn2cc(-c3cccc(Cl)c3)nc12"
  target-under-test: "SIRT1 (Homo sapiens)"
  Emax: "> 200%"
- smiles-structure: "O=C(Nc1ccccn1)c1cccn2cc(-c3ccc(N4CCCC4)cc3)nc12"
  target-under-test: "SIRT1 (Homo sapiens)"
  Emax: "< 200%"
- smiles-structure: "O=C(Nc1nccs1)c1cccn2cc(-c3ccccc3C(F)(F)F)nc12"
  target-under-test: "SIRT1 (Homo sapiens)"
  Emax: "< 200%"
- smiles-structure: "O=C(Nc1nccs1)c1nccn2cc(-c3ccccc3C(F)(F)F)nc12"
  target-under-test: "SIRT1 (Homo sapiens)"
  Emax: "> 200%"
- smiles-structure: "Cc1csc(NC(=O)c2cccn3cc(-c4ccccc4)nc23)n1"
  target-under-test: "SIRT1 (Homo sapiens)"
  Emax: "> 200%"
- smiles-structure: "O=C(Nc1cccnn1)c1nccn2cc(-c3ccc(F)cc3C(F)(F)F)nc12"
  target-under-test: "SIRT1 (Homo sapiens)"
  Emax: "> 200%"
- smiles-structure: "O=C(NC1CCCC1)c1cccn2cc(-c3cccc(OC(F)(F)F)c3)nc12"
  target-under-test: "SIRT1 (Homo sapiens)"
  Emax: "< 200%"
- smiles-structure: "O=C(Nc1nccs1)c1cccn2nc(-c3cc(N4CCOCC4)ccc3C(F)(F)F)nc12"
  target-under-test: "SIRT1 (Homo sapiens)"
  Emax: "> 200%"
- smiles-structure: "O=C(Nc1nccs1)c1cccn2nc(-c3cc(Cl)ccc3C(F)(F)F)nc12"
  target-under-test: "SIRT1 (Homo sapiens)"
  Emax: "< 200%"
- smiles-structure: "O=C(Nc1ccccn1)c1cccn2nc(-c3ccccc3OC(F)(F)F)nc12"
  target-under-test: "SIRT1 (Homo sapiens)"
  Emax: "> 200%"
- smiles-structure: "O=C(Nc1nccs1)c1cccn2cc(-c3cccc(OC(F)(F)F)c3)nc12"
  target-under-test: "SIRT1 (Homo sapiens)"
  Emax: "< 200%"
